- assay.target: T1, porcine pancreatic elastase (porcine, UniProt P00772 27-266)
- T1 construct: substrate AAApNA
- T1 sequence (P00772 27-266 limits assumed): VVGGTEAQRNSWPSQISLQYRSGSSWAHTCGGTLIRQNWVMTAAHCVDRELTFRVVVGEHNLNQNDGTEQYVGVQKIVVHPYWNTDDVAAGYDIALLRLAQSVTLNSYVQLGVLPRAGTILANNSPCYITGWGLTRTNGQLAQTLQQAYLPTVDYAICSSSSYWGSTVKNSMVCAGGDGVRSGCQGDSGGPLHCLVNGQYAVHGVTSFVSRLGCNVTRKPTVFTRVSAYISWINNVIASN
- experimental.protocol: elastase inhibition, Ki=IC50/(1+S/Km)
Bridge positions count the residues as written; N and C are the ends. Ends that are not written are not given here.
Output Condition met for records whose Ki is lower than 300 nM, Condition not met for records at or above 300 nM.

ICTASYPPQCR (disulfide 2-10 (inferred), disulfide bond between the two Cys) [EC27]
Condition not met
LCTASIPPICQ (disulfide 2-10 (inferred), disulfide bond between the two Cys) [EC12]
Condition met
LCTASIPPQCY (disulfide 2-10 (inferred), disulfide bond between the two Cys) [EC1]
Condition not met
YCTASIPPICQ (disulfide 2-10 (inferred), disulfide bond between the two Cys) [EC29]
Condition met

Request: Find out if reported Ki for MCTASMPPQCH (disulfide 2-10 (inferred), disulfide bond between the two Cys) [EC26] is less than 300 nM
Response: Condition not met

Request: Find out if reported Ki for SNGNAVEDGGLCTASIPPQCY (disulfide 12-20 (inferred), disulfide bond between the two Cys; peptide name, not a potency value) [EC50] is less than 300 nM
Response: Condition met
